Test system: MeWo (human melanoma cancer)
run_description: cytotoxicity IC50 (3H-thymidine uptake, colonogenic cell survival and MTT assays)
Type: cell-based

- molecule: "CCCCCCCCCCCCCCCCOCC(CCP(=O)([O-])OCC[N+](C)(C)C)OC (stereo not shown)"
  units_label: "µM"
  IC50: 15.7

###

System: MCF-7 (human breast cancer)
run_description: cytotoxicity IC50 (3H-thymidine uptake, colonogenic cell survival and MTT assays)
Assay type: cell-based
assay_context: MCF7
pIC50: −log10 of the molar value.
measure_name: pIC50

- molecule: "CCCCCCCCCCCCCCCCOCC(CCP(=O)([O-])OCC[N+](C)(C)C)OC (stereo not shown) [compound VIII]"
  measure_name: "pIC50"
  val: 4.45

###

System: L1210 (mouse B-cell lymphoma)
run_description: cytotoxicity IC50 (3H-thymidine uptake, colonogenic cell survival and MTT assays)
Format: cell-based
pIC50: −log10 of the molar value.

- molecule: "CCCCCCCCCCCCCCCCOCC(CCP(=O)([O-])OCC[N+](C)(C)C)OC (stereo not shown)"
  pIC50: 5.30
